Experiment: Stability in cell medium
Format: in vitro ADME
Details: cell medium in Krebs-Henseleit buffer; Krebs-Henseleit buffer pH 7.4 with cell medium, 37°C; 0, 6 and 24 hours; first-order kinetics; read-out: Cell medium half-life (converted)
Peptide text beside a SMILES is read from it.
metric name: half-life (h)
Return type: number; implicit unit h.

**Q:** Field request: half-life | item: NC(=O)C[C@H](NC(=O)[C@H](Cc1c[nH]c2ccccc12)NC(=O)[C@@H](N)CC(N)=O)C(=O)O [EDF-analogue, NWN] (H-Asn-Trp-Asn-OH; N-terminus and C-terminus assumed)
**A:** 42

* * *

Assay: in vitro
Settings: human, Caco-2
Peptide text beside a SMILES is read from it.
metric name: efflux ratio at 120 min, 10 μM

**Q:** Field request: efflux ratio at 120 min, 10 μM | item: NC(=O)C[C@H](NC(=O)[C@H](Cc1c[nH]c2ccccc12)NC(=O)[C@@H](N)CC(N)=O)C(=O)O [EDF-analogue, NWN] (H-Asn-Trp-Asn-OH; N-terminus and C-terminus assumed)
**A:** 1.1
